Source: patent EP4574844A1

Target: T1, recombinant cynomolgus PDL1 (cynomolgus monkey, UniProt G7PSE7 19-238)
T1 construct: also called cynom; PDL1
T1 sequence (G7PSE7 entry or part of it): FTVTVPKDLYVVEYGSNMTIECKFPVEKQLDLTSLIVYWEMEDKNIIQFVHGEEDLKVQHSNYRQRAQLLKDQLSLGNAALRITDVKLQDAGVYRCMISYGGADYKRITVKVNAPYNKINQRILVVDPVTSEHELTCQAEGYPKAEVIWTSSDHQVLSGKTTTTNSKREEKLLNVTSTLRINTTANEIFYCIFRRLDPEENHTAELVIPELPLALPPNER
Assay: SPR
outcome_measure: Kd (pM)
Give the value, in units of pM, as a plain number.

Check out these entries, answers already filled in.
PRO3891 (scFv, anti-PDL1 scFv) scFv: DIQMTQSPSSLSASVGDRVTITCQASQSINDYLAWYQQKPGKAPKLLIYKGGTLASGVPSRFSGSGSGTDFTLTISSLQPEDFATYYCQQGYIITDIDNVFGTGTKVTVLGGGGGSGGGGSGGGGSGGGGSQVQLQESGPGLVKPSETLSLTCKASGFSFSSGYDMCWVRQPPGKGLEWIACVVAGSVDITYYASWAKGRVTISKDSSKNQVSLKLSSVTAADSAVYYCARKDAYSDAFNLWGQGTLVKVSS : 3.4
PRO1347 (scFv, anti-PDL1 scFv; also called 37-20-B03-sc09) scFv: DIQMTQSPASLSASVGDRVTITCQASQSIGTYLAWYQQKPGKPPKLLIYRAFILASGVPSRFSGSGSGTDFTLTISSLQPEDFATYYCQSNFYSDSTTIGPNAFGTGTKVTVLGGGGGSGGGGSGGGGSGGGGSEVQLVESGGGLVQPGGSLRLSCAASGFSFNSDYWIYWVRQAPGKGLEWIACIYGGSSGNTQYASWAQGRFTISRDNSKNTVYLQMNSLRAEDTAVYFCARGYVDYGGATDLWGQGTLVTVSS : 12.7
PRO2230 (scFv, anti-PDL1 scFv; also called 37-20-B03-sc09.1) scFv: DIQMTQSPASLSASVGDRVTITCQASQSIGTYLAWYQQKPGKPPKLLIYRAFILASGVPSRFSGSGSGTDFTLTISSLQPEDFATYYCQSNFYSDSTTIGPNAFGTGTKVTVLGGGGGSGGGGSGGGGSGGGGSEVQLVESGGGLVQPGGSLRLSCAASGFSFNSDYWIYWVRQAPGKGLEWIASIYGGSSGNTQYASWAQGRFTISRDNSKNTVYLQMNSLRAEDTAVYFCARGYVDYGGATDLWGQGTLVTVSS : 12

Now, please, on to the next binder.
Entry PRO1392 (scFv, anti-PDL1 scFv (VL-linker-VH); also called 33-03-G02-sc18) scFv: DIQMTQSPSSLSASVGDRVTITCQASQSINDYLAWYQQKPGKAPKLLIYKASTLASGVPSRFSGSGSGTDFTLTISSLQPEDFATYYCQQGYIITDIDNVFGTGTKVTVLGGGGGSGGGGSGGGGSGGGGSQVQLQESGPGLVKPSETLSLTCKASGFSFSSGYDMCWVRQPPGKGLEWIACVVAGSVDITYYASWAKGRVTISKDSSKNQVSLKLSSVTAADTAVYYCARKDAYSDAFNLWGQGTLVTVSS has what Kd?
6.5
